# assay protocol: Pharmacokinetic studies of ENR and SAL in broilers (plasma, non-compartmental)
# measurement setup: AA broiler, plasma, po, 7.5 mg/kg, AUC0-∞, broiler plasma; SAL (5 d) + ENR: SAL 60 mg/kg mixed feeding 5 days, then ENR 7.5 mg/kg gavage; n=6, Mean ± SD
assay metric: AUC(0-inf)
Answer shape: numeric part, then the unit.

Which AUC(0-inf) value is on record for CCN1CCN(c2cc3c(cc2F)c(=O)c(C(=O)O)cn3C2CC2)CC1 [ENR, Enrofloxacin] ?
16000 ng·h/mL

---

# assay protocol: Pharmacokinetic studies of ENR and SAL in broilers (plasma, non-compartmental);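 note: plasma drug levels measured by HPLC or LC-MS/MS, with PK parameters obtained through non-compartmental analysis in WinNonlin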
# measurement setup: AA broiler, plasma, po, 7.5 mg/kg, t1/2, broiler plasma; ENR (7.5 mg/kg) gavage alone; n=6, Mean ± SD
assay metric: half-life (h)
Quick note: give the figure in h, leave out the unit.

// lookup half-life for CCN1CCN(c2cc3c(cc2F)c(=O)c(C(=O)O)cn3C2CC2)CC1
7.45
